Read-out: X-box binding protein 1 (XBP1), XBP1 (gene 7494)
Assay: LTEA_HepaRG_XBP1: Life Technologies and Expression Analysis (LTEA) Assay for X-box binding protein 1 (XBP1) using HepaRG (AID 2283540)
Conditions: mRNA level, 48 h; actives raise or lower the signal
Active and inactive are the calls of the source. Rule for the calls: active = hit-call score of the fitted dose curve at least 0.9, where 1 is the maximum; inactive = score below 0.9.
outcome.measure: AC50

molecule	measured.result
CCCOC(=O)c1ccc(C(=O)OCCC)nc1	inactive
C[C@]12CC[C@@H]3c4ccc(O)cc4C[C@@H](CCCCCCCCCS(=O)CCCC(F)(F)C(F)(F)F)[C@H]3[C@@H]1CC[C@@H]2O (stereo partly drawn)	0.0493 µM (active)
CC(C)(c1ccc(O)cc1)c1ccc(O)cc1	inactive
COc1c(Cl)ccc(Cl)c1C(=O)O	inactive
S=C([S-])NCCNC(=S)[S-].[Mn+2]	3.17 µM (active)
CCC(C)OC(=O)N1CCCCC1CCO (stereo not drawn)	inactive

Now take the following molecule into account.
Fill in: AC50 of CCOC(=O)NCCOc1ccc(Oc2ccccc2)cc1 is ___ inactive

---

Read-out: Interleukin 6 (IL6), IL6 (gene 3569)
Experiment: LTEA_HepaRG_IL6: Life Technologies and Expression Analysis (LTEA) Assay for Interleukin 6 (IL6) using HepaRG (AID 2283509)
Details: mRNA level, 48 h; actives raise or lower the signal
Experimental: LTEA_HepaRG is a cell based, multiplexed-readout assay that uses HepaRG, a human liver cell line, with measurements taken at 48 hours after chemical dosing on a 96-well plate.LTEA_HepaRG_IL6 is one of 102 assay component(s) measured in the LTEA HepaRG cell culture assay. It is a marker of Inflammation.Data from the assay component LTEA_HepaRG_IL6 was analyzed into 1 endpoint. […]
The source made the active and inactive calls. How the source made its calls: active means hit-call score of the fitted dose curve at least 0.9, where 1 is the maximum; inactive means score below 0.9.
# valid calls are active, inactive; nothing else

Known results for compounds:
structure.as.smiles	discrete.label
COC(=O)CSc1cc(N=c2sc(=O)n3n2CCCC3)c(F)cc1Cl	inactive
C#C[C@]1(O)CC[C@H]2[C@@H]3CCC4=CC(=O)CC[C@@H]4[C@H]3CC[C@@]21CC	active
COC(=O)c1ccc(I)cc1S(=O)(=O)NC(=O)Nc1nc(C)nc(OC)n1	inactive
CC(=O)[C@H]1CC[C@H]2[C@@H]3CCC4=CC(=O)CC[C@]4(C)[C@H]3CC[C@]12C	active

What classification did CCSC(=O)N(CC(C)C)CC(C)C end up with in this test? inactive

---

Read-out: catalase (CAT), CAT (gene 847)
Assay: LTEA_HepaRG_CAT: Life Technologies and Expression Analysis (LTEA) Assay for catalase (CAT) using HepaRG (AID 2283452)
Details: mRNA level, 48 h; actives raise or lower the signal
Active and inactive are the calls of the source. Rule for the calls: active = hit-call score of the fitted dose curve at least 0.9, where 1 is the maximum; inactive = score below 0.9.
Hello, when you answer, please use one of the following outcomes: t (active), f (inactive)

compound	discrete.label
CCCCOCCOCCOCc1cc2c(cc1CCC)OCO2	f
Cc1nn(C)c(Oc2ccccc2)c1C=NOCc1ccc(C(=O)OC(C)(C)C)cc1	t
O=C(c1ccccc1)C1CCCCC1	f
C#CCOC(=O)[C@@H](C)Oc1ccc(Oc2ncc(Cl)cc2F)cc1	f
COC(=O)c1ccccc1C(=O)O	f
C[C@]12CC[C@@H]3c4ccc(O)cc4C[C@@H](CCCCCCCCCS(=O)CCCC(F)(F)C(F)(F)F)[C@H]3[C@@H]1CC[C@@H]2O (stereo partly specified)	t

Outcome? c1ccc2[nH]c(-c3cscn3)nc2c1 f

# lookup: test call for N#CSCSc1nc2ccccc2s1 f

Which result was noted for this compound in the test: C=CCOC(Cn1ccnc1)c1ccc(Cl)cc1Cl (stereo unspecified) t

In this assay, the call recorded for CCCCCCC(C)OC(=O)COc1nc(F)c(Cl)c(N)c1Cl (stereo unspecified) was what? f

Outcome? CC(=O)[C@H]1CC[C@H]2[C@@H]3CCC4=CC(=O)CC[C@]4(C)[C@H]3CC[C@]12C t

---

Read-out: Monocyte Chemoattractant Protein-1 (MCP1), CCL2 (gene 6347)
Assay: BSK_4H_MCP1: BioMAP Diversity Plus: 4H Assay for Monocyte Chemoattractant Protein-1 (MCP1) Biomarker Activity (AID 2283018)
Details: primary human endothelial cells (HUVEC); actives raise or lower the signal
Calls of active or inactive are those of the source. The calls were made as follows: active = hit-call score of the fitted dose curve at least 0.9, where 1 is the maximum; inactive = score below 0.9.
outcome.measure: AC50

molecule	outcome.measure	measured.result
CCCN(CCC)C(=O)SCC	AC50	inactive
COCCO	AC50	inactive
CCCCC(CC)COC(=O)c1ccccc1C(=O)O (stereo unspecified)	AC50	inactive
CC(C)(C)[C@@H](O)[C@@H](Cc1ccc(Cl)cc1)n1cncn1	AC50	inactive
COC(=O)c1ccccc1C(=O)O	AC50	inactive
C[C@]12CC[C@@H]3c4ccc(O)cc4C[C@@H](CCCCCCCCCS(=O)CCCC(F)(F)C(F)(F)F)[C@H]3[C@@H]1CC[C@@H]2O (stereo partly specified)	AC50	inactive

Form field: reported AC50 of COC(=O)c1c(Cl)nn(C)c1S(=O)(=O)NC(=O)Nc1nc(OC)cc(OC)n1 inactive

What value of measured AC50 is listed for CCCCOC(=O)[C@@H](C)Oc1ccc(Oc2ccc(C(F)(F)F)cn2)cc1 ? inactive

Give its AC50 value. Item: CCCCCCC(C)OC(=O)COc1nc(F)c(Cl)c(N)c1Cl (stereo unspecified) 32.3 µM (active)

Give its AC50 value. Item: C=CCOC(Cn1ccnc1)c1ccc(Cl)cc1Cl (stereo unspecified) 27.7 µM (active)

Query (molecule): N[C@@H](Cc1cc(I)c(Oc2ccc(O)c(I)c2)c(I)c1)C(=O)O ; field requested: AC50 inactive

---

Read-out: Cytochrome P450 3A4 (Homo sapiens) (UniProt P08684)
Sequence (P08684 whole entry, looked up): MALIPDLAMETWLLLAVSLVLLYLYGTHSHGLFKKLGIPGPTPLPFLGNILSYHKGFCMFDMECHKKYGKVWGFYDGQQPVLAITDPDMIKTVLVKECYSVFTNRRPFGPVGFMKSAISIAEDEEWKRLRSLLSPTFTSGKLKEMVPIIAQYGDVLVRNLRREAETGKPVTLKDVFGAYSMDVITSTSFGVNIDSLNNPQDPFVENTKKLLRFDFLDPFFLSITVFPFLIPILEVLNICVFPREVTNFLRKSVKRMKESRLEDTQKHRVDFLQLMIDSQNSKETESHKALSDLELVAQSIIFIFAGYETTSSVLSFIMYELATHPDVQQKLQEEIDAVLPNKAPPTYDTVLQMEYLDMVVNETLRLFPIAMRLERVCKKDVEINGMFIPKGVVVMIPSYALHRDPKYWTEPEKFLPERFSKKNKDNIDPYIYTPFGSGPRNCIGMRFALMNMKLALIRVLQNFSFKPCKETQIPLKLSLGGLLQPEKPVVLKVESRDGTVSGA
Assay: CLD_CYP3A4_48hr: CellzDirect (CLD) Gene Expression Assay for xenobiotic metabolism (CYP3A4) at 48 hours (AID 2283698)
Inconclusive results are not listed. The source made the active and inactive calls. How the source made its calls: active means hit-call score of the fitted dose curve at least 0.9, where 1 is the maximum; inconclusive means response in the unintended direction; inactive means score below 0.9.

structure.as.smiles	AC50
Cc1nn(C)c(Oc2ccccc2)c1C=NOCc1ccc(C(=O)OC(C)(C)C)cc1	inactive
CCCN(CCC)C(=O)SCC	inactive
O=C(O)C1(C(=O)Nc2ccc(Cl)cc2Cl)CC1	inactive
CCN(Cc1c(F)cccc1Cl)c1c([N+](=O)[O-])cc(C(F)(F)F)cc1[N+](=O)[O-]	1900 nM (active)

---

Target: Bile acid receptor (Homo sapiens)
Assay: OT_FXR_FXRSRC1_1440: Odyssey Thera (OT) 24-hour HEK293T Protein-Complementation Assay for Farnesoid X receptor/SRC-1 Co-activator (AID 2283384)
Records with an inconclusive call do not appear. Active and inactive are the calls of the source. The calls were made as follows: active = hit-call score of the fitted dose curve at least 0.9, where 1 is the maximum; inconclusive = response in the unintended direction; inactive = score below 0.9.
I would appreciate it if you answered using one of these outcomes: 1 (yes) = active, 0 (no) = inactive

molecule	discrete.label
c1ccc2[nH]c(-c3cscn3)nc2c1	0 (no)
CCOC(=O)C(C)Oc1ccc(Oc2cnc3cc(Cl)ccc3n2)cc1 (centres undefined)	0 (no)
O=C(Nc1ccc([N+](=O)[O-])cc1Cl)c1cc(Cl)ccc1O	1 (yes)

Test call, this molecule: CC(C)(C)[C@@H](O)[C@@H](Cc1ccc(Cl)cc1)n1cncn1 0 (no)

Can you look up the reported call for O=C(O)C1(C(=O)Nc2ccc(Cl)cc2Cl)CC1 for me? 0 (no)

Tell me the assay call for CCCN(CCC)c1c([N+](=O)[O-])cc(C(F)(F)F)c(N)c1[N+](=O)[O-] please. 1 (yes)

Hello, I am checking results. What call was entered for Cc1nn(C)c(Oc2ccccc2)c1C=NOCc1ccc(C(=O)OC(C)(C)C)cc1 ? 1 (yes)

Please state the recorded outcome for this molecule: CCCCOCCOCCOCc1cc2c(cc1CCC)OCO2 0 (no)

Name the outcome recorded for CCCCOC(=O)C(C)Oc1ccc(Oc2ccc(C(F)(F)F)cn2)cc1 (centres undefined) in the assay. 0 (no)

---

Test: CCTE_Mundy_HCI_hNP1_Pro_ResponderAvgInten: CCTE's Proliferation Assay in human neuroprogenitor cells, Mundy Lab (AID 2284224);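 note: human neural progenitor cells hNP1 derived from WA09 embryonic stem cells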
Records with an inconclusive call do not appear. Activity calls are given as the source filed them. The calls were made as follows: active = hit-call score of the fitted dose curve at least 0.9, where 1 is the maximum; inconclusive = response in the unintended direction; inactive = score below 0.9.
// one of active, inactive, no free text

structure.as.smiles	discrete.label
CC(C)(c1ccc(O)cc1)c1ccc(O)cc1	inactive
C#CCOC(=O)[C@@H](C)Oc1ccc(Oc2ncc(Cl)cc2F)cc1	active
CCCN(CCC)C(=O)SCC	inactive

Now for a further compound.
What call does the record list for Cc1nn(C)c(Oc2ccccc2)c1C=NOCc1ccc(C(=O)OC(C)(C)C)cc1 ? active

---

Read-out: Fatty acid synthase (Homo sapiens) (UniProt P49327)
Sequence (P49327 whole entry, looked up): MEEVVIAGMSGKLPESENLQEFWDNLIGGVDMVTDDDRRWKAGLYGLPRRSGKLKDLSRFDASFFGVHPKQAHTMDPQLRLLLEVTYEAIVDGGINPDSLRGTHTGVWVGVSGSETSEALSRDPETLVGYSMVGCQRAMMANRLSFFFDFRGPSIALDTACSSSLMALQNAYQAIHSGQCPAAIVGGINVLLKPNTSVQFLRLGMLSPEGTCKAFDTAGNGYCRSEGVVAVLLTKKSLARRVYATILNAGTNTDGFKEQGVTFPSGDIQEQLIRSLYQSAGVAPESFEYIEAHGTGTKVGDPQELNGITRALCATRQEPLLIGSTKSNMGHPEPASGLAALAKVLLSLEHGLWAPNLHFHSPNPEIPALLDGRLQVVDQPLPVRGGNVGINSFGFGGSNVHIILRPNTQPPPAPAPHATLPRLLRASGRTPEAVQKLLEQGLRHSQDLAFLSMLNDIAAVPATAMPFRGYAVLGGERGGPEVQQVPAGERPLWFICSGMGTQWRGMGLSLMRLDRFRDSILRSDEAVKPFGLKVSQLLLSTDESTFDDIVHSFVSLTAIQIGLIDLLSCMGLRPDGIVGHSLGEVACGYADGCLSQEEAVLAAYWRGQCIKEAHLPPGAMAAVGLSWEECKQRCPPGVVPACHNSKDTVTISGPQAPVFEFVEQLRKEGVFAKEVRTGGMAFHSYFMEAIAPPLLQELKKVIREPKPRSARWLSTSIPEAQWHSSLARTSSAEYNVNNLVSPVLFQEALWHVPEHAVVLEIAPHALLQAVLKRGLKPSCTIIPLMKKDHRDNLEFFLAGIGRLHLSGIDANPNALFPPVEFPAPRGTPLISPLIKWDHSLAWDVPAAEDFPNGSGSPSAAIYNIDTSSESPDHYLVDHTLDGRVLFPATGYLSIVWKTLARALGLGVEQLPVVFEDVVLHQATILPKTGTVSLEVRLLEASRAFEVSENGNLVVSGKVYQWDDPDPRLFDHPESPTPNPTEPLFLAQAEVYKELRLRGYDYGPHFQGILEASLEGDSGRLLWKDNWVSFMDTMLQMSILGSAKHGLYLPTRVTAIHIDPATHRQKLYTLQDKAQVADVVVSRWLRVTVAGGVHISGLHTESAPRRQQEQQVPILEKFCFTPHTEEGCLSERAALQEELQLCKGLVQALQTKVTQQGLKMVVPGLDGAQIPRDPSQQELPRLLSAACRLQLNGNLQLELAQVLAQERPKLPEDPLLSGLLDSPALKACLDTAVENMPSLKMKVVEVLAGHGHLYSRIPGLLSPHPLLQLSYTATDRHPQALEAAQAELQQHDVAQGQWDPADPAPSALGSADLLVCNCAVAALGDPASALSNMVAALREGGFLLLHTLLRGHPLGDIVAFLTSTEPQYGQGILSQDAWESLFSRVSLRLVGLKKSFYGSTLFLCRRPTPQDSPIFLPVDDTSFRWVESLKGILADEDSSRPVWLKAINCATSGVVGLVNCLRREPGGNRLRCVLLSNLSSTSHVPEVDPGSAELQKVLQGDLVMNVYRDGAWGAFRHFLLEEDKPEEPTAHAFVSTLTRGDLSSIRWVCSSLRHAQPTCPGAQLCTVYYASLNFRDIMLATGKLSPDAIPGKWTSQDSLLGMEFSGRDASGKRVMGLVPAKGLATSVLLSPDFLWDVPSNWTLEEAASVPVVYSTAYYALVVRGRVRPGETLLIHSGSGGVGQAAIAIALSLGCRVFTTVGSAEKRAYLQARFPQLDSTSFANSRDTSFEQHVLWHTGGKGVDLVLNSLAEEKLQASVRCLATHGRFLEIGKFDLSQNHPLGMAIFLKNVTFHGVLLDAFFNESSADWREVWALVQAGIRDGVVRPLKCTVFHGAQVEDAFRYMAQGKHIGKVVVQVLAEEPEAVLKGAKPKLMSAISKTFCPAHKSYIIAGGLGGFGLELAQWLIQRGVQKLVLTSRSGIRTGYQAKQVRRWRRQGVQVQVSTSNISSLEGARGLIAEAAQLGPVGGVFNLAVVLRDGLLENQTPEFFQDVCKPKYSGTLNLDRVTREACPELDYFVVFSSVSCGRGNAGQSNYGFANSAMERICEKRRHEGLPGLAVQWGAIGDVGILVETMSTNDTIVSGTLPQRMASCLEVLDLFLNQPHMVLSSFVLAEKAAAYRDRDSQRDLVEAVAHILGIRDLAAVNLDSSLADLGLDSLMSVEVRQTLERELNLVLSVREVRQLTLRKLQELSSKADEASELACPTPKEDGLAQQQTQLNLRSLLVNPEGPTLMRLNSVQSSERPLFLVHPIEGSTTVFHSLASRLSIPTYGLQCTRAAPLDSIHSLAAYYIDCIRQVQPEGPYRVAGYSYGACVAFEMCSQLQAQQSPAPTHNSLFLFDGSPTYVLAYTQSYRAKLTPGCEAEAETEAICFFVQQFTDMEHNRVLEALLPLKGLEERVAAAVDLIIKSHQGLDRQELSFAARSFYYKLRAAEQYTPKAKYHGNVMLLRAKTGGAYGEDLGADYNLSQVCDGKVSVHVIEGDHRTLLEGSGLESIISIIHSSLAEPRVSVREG
Experiment: LTEA_HepaRG_FASN: Life Technologies and Expression Analysis (LTEA) Assay for Fatty Acid Synthase (FASN) using HepaRG (AID 2283448);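 for AC50: differentiated human HepaRG liver cells in serum-free induction medium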
Conditions: mRNA level, 48 h; actives raise or lower the signal
Activity calls are given as the source filed them. Rule for the calls: active = hit-call score of the fitted dose curve at least 0.9, where 1 is the maximum; inactive = score below 0.9.
outcome.measure: AC50

molecule	AC50
CCSC(=O)N(CC(C)C)CC(C)C	inactive
CCOC(=O)C(C)Oc1ccc(Oc2cnc3cc(Cl)ccc3n2)cc1 (stereo unspecified)	43 µM (active)
C#C[C@]1(O)CC[C@H]2[C@@H]3CCC4=CC(=O)CC[C@@H]4[C@H]3CC[C@@]21CC	inactive
CCN(CC)C(=O)c1cccc(C)c1	inactive
CCCN(CCC)c1c([N+](=O)[O-])cc(C(F)(F)F)c(N)c1[N+](=O)[O-]	50 µM (active)
CCCCOC(=O)C(C)Oc1ccc(Oc2ccc(C(F)(F)F)cn2)cc1 (stereo unspecified)	inactive
CCOC(=O)c1ccc(O)cc1	inactive
CC(=O)S[C@@H]1CC2=CC(=O)CC[C@]2(C)[C@H]2CC[C@@]3(C)[C@@H](CC[C@@]34CCC(=O)O4)[C@H]12	37.3 µM (active)
CC(C)(C)[C@@H](O)[C@@H](Cc1ccc(Cl)cc1)n1cncn1	50 µM (active)
CC1(C)C(C=C(Cl)Cl)C1C(=O)OCc1cccc(Oc2ccccc2)c1 (stereo unspecified)	inactive

Requested field: AC50. Item: O=C(Nc1ccc([N+](=O)[O-])cc1Cl)c1cc(Cl)ccc1O 2.94 µM (active)
